- target desc: UniProt:O15530
- assay overview: Activation of PDK1 using KTFCGTPEYLAPEVRR as substrate and [gamma32P]-ATP/Mg2+ by phosphor imaging analysis relative to control
Activity calls are given as the source filed them. The calls are words filed in the database; no cut-off is given here.
reported metric: max activation

Illustrative cases are given below, each with its answer.
[
  {
    "molecule": "O=C(O)CC(CC(=O)c1ccc(I)cc1)c1ccc(Cl)cc1 (racemic)",
    "max activation": 2.5
  },
  {
    "molecule": "O=C(O)CC(CC(=O)c1ccc(Cl)cc1)c1ccccc1 (racemic)",
    "max activation": 3
  },
  {
    "molecule": "COc1ccc2cc(C(=O)CC(c3ccccc3)C(C(=O)O)C(=O)O)ccc2c1 (racemic)",
    "max activation": 3.6
  },
  {
    "molecule": "O=C(CC(c1ccccc1)C(C(=O)O)C(=O)O)c1ccc(Br)cc1 (racemic)",
    "max activation": 3.7
  },
  {
    "molecule": "O=C(O)CC(CC(=O)c1ccc2c(ccc3ccccc32)c1)c1ccccc1 (racemic)",
    "max activation": 1.5
  },
  {
    "molecule": "O=C(O)CC(CC(=O)c1ccc(C(F)(F)F)cc1)c1ccc(Cl)cc1 (racemic)",
    "max activation": "inactive"
  }
]

[Q] Need max activation, item CCc1ccc(C(=O)CC(c2ccc(Cl)cc2)C(C(=O)O)C(=O)O)cc1 (racemic)
[A] 3

[Q] Please answer likewise for O=C(O)CC(CC(=O)c1ccc(Cl)cc1)c1ccc(Cl)cc1 (racemic)
[A] inactive

[Q] Please answer likewise for `O=C(C[C@@H](c1ccccc1)C(C(=O)O)C(=O)O)c1ccc(C(F)(F)F)cc1`
[A] 2

----------
- target desc: 3-phosphoinositide-dependent protein kinase 1 (Homo sapiens, UniProt O15530)
- assay overview: Binding affinity to PDK1
reported metric: Kd
Output should be the measured figure followed by the unit it is expressed in.

[Q] Need Kd, item `H-REPRILSEEEQEMFRDFDYIADWC-OH`
[A] 43 nM

----------
- assay overview: Hydrolysis half life of the compound
- Format: physicochemical
reported metric: half-life
Output should be the measured figure followed by the unit it is expressed in.

[Q] Need half-life, item CC(=O)OCOC(=O)C(C(=O)OCOC(C)=O)C(CC(=O)c1ccc(C(F)(F)F)cc1)c1ccccc1 (stereo unspecified)
[A] 288 min

----------
- target desc: 3-phosphoinositide-dependent protein kinase 1 (Homo sapiens) (UniProt O15530)
- assay overview: Activation of PDK1 using KTFCGTPEYLAPEVRR as substrate and [gamma32P]-ATP/Mg2+ by phosphor imaging analysis relative to control
Listed next: entries and their corresponding max activation.

Illustrative cases are given below, each with its answer.
[
  {
    "molecule": "O=C(O)CC(CC(=O)c1ccc2cc(O)ccc2c1)c1ccccc1 (racemic)",
    "target desc": "3-phosphoinositide-dependent protein kinase 1 (Homo sapiens) (UniProt O15530)",
    "result": 3
  },
  {
    "molecule": "O=C(CC(c1ccccc1)C(C(=O)O)C(=O)O)c1ccc2c(c1)[nH]c1ccccc12 (racemic)",
    "target desc": "3-phosphoinositide-dependent protein kinase 1 (Homo sapiens) (UniProt O15530)",
    "result": 3.6
  },
  {
    "molecule": "O=C(CC(c1ccccc1)C(C(=O)O)C(=O)O)c1c[nH]c2ccccc12 (racemic)",
    "target desc": "3-phosphoinositide-dependent protein kinase 1 (Homo sapiens) (UniProt O15530)",
    "result": 3
  }
]

Here's the next entry for you.
[Q] Provide the documented max activation with 3-phosphoinositide-dependent protein kinase 1 (Homo sapiens) (UniProt O15530) as the system for O=C(O)CC(CC(=O)c1ccc(C(F)(F)F)cc1)c1ccccc1 (racemic)
[A] 4

----------
- target desc: 3-phosphoinositide-dependent protein kinase 1 (Homo sapiens) (UniProt O15530)
- assay overview: Increase in thermal stability of PDK1 assessed as concentration required to increase 1.5 degC thermal stability by differential scanning fluorimetry
Listed next: entries and their corresponding Activity.
Expressed in µM, but write only the number.

Illustrative cases are given below, each with its answer.
[
  {
    "compound": "O=C(CC(c1ccccc1)C(C(=O)O)C(=O)O)c1ccc(C(F)(F)F)cc1 (racemic)",
    "uom": "µM",
    "Activity": 67.6
  },
  {
    "compound": "O=C(CC(c1ccccc1)C(C(=O)O)C(=O)O)c1ccc(I)cc1 (racemic)",
    "uom": "µM",
    "Activity": 30.9
  },
  {
    "compound": "O=C(CC(c1ccc2ccccc2c1)C(C(=O)O)C(=O)O)c1ccc(I)cc1 (racemic)",
    "uom": "µM",
    "Activity": 18.9
  }
]

Here's the next entry for you.
[Q] Need Activity, item O=C(CC(c1ccccc1)C(C(=O)O)C(=O)O)c1ccc2c(c1)[nH]c1ccccc12 (racemic)
[A] 18.2

----------
- target desc: UniProt:O15530
- assay overview: Activation of PDK1 using KTFCGTPEYLAPEVRR as substrate and [gamma32P]-ATP/Mg2+ by phosphor imaging analysis relative to control
Listed next: entries and their corresponding max activation.

[
  {
    "compound": "O=C(CC(c1ccccc1)C(C(=O)O)C(=O)O)c1ccc2c(ccc3ccccc32)c1 (racemic)",
    "result": 3.7
  },
  {
    "compound": "O=C(CC(c1ccc(Cl)cc1)C(C(=O)O)C(=O)O)c1ccc(Br)cc1 (racemic)",
    "result": 3
  },
  {
    "compound": "O=C(C[C@H](c1ccccc1)C(C(=O)O)C(=O)O)c1ccc(C(F)(F)F)cc1",
    "result": 5.5
  },
  {
    "compound": "O=C(CC(c1ccc2ccccc2c1)C(C(=O)O)C(=O)O)c1ccc(I)cc1 (racemic)",
    "result": 3.6
  },
  {
    "compound": "O=C(O)CC(CC(=O)c1ccc(Oc2ccccc2)cc1)c1ccccc1 (racemic)",
    "result": 2.8
  }
]

[Q] Need max activation, item O=C(O)CC(CC(=O)c1ccc(Br)cc1)c1ccccc1 (racemic)
[A] 2

[Q] Please answer likewise for O=C(O)CC(CC(=O)c1ccc2ccccc2c1)c1ccccc1 (racemic)
[A] 2.5

[Q] Please answer likewise for O=C(CC(c1ccc2ccccc2c1)C(C(=O)O)C(=O)O)c1ccc2ccccc2c1 (racemic)
[A] 4.8

----------
- target desc: 3-phosphoinositide-dependent protein kinase 1 (Homo sapiens)
- assay overview: Increase in thermal stability of PDK1 by differential scanning fluorimetry
Listed next: entries and their corresponding pEC50.
Hey, just a heads up that pEC50 is the negative log base 10 of the concentration in molar.

[
  {
    "compound": "O=C(CC(c1ccc2ccccc2c1)C(C(=O)O)C(=O)O)c1ccc(I)cc1 (racemic)",
    "pEC50": 4.89
  },
  {
    "compound": "O=C(CC(c1ccccc1)C(C(=O)O)C(=O)O)c1ccc2c(c1)[nH]c1ccccc12 (racemic)",
    "pEC50": 4.52
  },
  {
    "compound": "O=C(CC(c1ccccc1)C(C(=O)O)C(=O)O)c1ccc(I)cc1 (racemic)",
    "pEC50": 4.22
  }
]

[Q] Need pEC50, item O=C(CC(c1ccccc1)C(C(=O)O)C(=O)O)c1ccc(C(F)(F)F)cc1 (racemic)
[A] 4.07

----------
Listed next: entries and their corresponding ΔTm.
- target desc: 3-phosphoinositide-dependent protein kinase 1 (Homo sapiens)
- Sequence (whole entry): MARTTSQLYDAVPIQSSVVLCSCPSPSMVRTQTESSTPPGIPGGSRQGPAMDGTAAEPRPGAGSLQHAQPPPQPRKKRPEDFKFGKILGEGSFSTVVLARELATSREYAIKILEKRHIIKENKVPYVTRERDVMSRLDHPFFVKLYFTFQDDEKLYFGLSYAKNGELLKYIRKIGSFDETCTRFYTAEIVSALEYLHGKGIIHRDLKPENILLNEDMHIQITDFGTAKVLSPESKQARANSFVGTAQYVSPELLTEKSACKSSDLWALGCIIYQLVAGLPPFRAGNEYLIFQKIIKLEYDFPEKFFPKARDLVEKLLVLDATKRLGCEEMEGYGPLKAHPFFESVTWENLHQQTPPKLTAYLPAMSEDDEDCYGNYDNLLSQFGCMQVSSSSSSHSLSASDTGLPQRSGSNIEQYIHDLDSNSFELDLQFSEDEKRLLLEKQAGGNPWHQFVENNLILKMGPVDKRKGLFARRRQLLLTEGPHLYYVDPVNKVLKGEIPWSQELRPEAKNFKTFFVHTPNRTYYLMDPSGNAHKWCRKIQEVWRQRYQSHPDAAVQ
- assay overview: Increase in thermal stability of PDK1 by differential scanning fluorimetry relative to control
Expressed in °C, but write only the number.

[
  {
    "compound": "O=C(CC(c1ccccc1)C(C(=O)O)C(=O)O)c1ccc(I)cc1 (racemic)",
    "ΔTm (°C)": 5.2
  },
  {
    "compound": "O=C(CC(c1ccccc1)C(C(=O)O)C(=O)O)c1ccc(C(F)(F)F)cc1 (racemic)",
    "ΔTm (°C)": 3.9
  },
  {
    "compound": "O=C(CC(c1ccc2ccccc2c1)C(C(=O)O)C(=O)O)c1ccc(I)cc1 (racemic)",
    "ΔTm (°C)": 2.4
  }
]

[Q] Need ΔTm, item O=C(CC(c1ccccc1)C(C(=O)O)C(=O)O)c1ccc2c(c1)[nH]c1ccccc12 (racemic)
[A] 4.9
